Biological target: dopamine D2 receptor (Rattus norvegicus)
Construct: from tissue; host or cells: limbic brain tissue, homogenate
Sequence (P61169 whole entry): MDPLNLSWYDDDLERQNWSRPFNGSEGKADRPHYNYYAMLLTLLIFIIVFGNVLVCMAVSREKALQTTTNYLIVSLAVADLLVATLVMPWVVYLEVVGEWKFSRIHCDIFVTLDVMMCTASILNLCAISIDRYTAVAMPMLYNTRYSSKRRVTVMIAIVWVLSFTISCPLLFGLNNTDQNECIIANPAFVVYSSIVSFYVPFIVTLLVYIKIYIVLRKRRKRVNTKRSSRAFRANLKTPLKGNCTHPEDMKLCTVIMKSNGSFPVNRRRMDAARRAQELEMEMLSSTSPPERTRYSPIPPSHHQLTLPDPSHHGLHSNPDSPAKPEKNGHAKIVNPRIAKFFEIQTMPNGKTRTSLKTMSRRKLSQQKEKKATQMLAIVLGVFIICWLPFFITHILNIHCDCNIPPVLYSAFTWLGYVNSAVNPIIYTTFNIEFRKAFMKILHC
Experiment: [3H]-spiperidone binding, limbic brain homogenate (D2 Spiper)
Details: homogenized limbic brain tissue
Source text: […]
TEST_READOUT: IC50 (nM)
Value expressed in nM; do not type the unit.

Report measured IC50 on dopamine D2 receptor (Rattus norvegicus); entry: O=C1Cc2c(ccc3c2OC(CNCc2ccc(F)cc2)CC3)N1 (centres unmarked) [Example 1b]
310

System dopamine D2 receptor (Rattus norvegicus). Read-out IC50. Item Cc1ccc(CNCC2CCc3ccc4c(c3O2)CC(=O)N4)cc1 (centres unmarked) [Example 1d] . Report value.
103

Give reported IC50 for COc1ccc(CNCC2CCc3ccc4c(c3O2)CC(=O)N4)cc1 (centres unmarked) [Example 1c] (dopamine D2 receptor (Rattus norvegicus))
295

GET IC50 where system = dopamine D2 receptor (Rattus norvegicus) and item = O=C1Cc2c(ccc3c2OC(CNCc2ccccc2)CC3)N1 (single isomer, unassigned; (+)) [Example 2a]
734

Report the value of IC50 obtained on dopamine D2 receptor (Rattus norvegicus) for O=C1Cc2c(ccc3c2OC(CNCc2ccccc2)CC3)N1 (single isomer, unassigned; (-)) [Example 2b] .
71.5

Answer briefly: IC50 recorded on dopamine D2 receptor (Rattus norvegicus) for O=C1Cc2c(ccc3c2OC(CNCc2ccc(Cl)cc2)CC3)N1 (centres unmarked) [Example 1e]
148

Send back dopamine D2 receptor (Rattus norvegicus) IC50 of Cc1ccc(CNCC2CCc3ccc4c(c3O2)CC(=O)N4)c(C)c1 (centres unmarked) [Example 1f] only.
392

System dopamine D2 receptor (Rattus norvegicus). Read-out IC50. Item O=C1Cc2c(ccc3c2OC(CNCc2ccccc2)CC3)N1 (centres unmarked) [Example 1a] . Report value.
142
